src = patent US20260109732A1

Provide the reported PDI of each item.
assay: Diameter and PDI from DLS measurements of mRNA nanoparticles with lipid amines; format: physicochemical; conditions: CFTR mRNA nanoparticle with lipid amine
Where a name gives a salt, the structure may show the parent alone.
// response body must contain only the number

Query: So what's the measured PDI for this one? CC[C@H](CC[C@@H](C)[C@H]1CC[C@H]2[C@@H]3CC=C4C[C@@H](OC(=O)N(CCCN)CCCCCCCCN)CC[C@]4(C)[C@H]3CC[C@]12C)C(C)C [SA69, dihydrochloride]
Reply: 0.13

Query: So what's the measured PDI for this one? "CC[C@H](CC[C@@H](C)[C@H]1CC[C@H]2[C@@H]3CC=C4C[C@@H](OC(=O)CCCC(=O)N(CCCCNCCC(C)(C)N)CCC(C)(C)N)CC[C@]4(C)[C@H]3CC[C@]12C)C(C)C.Cl.Cl.Cl"
Reply: 0.13

Query: So what's the measured PDI for this one? CC[C@H](CC[C@@H](C)[C@H]1CC[C@H]2[C@@H]3CC=C4C[C@@H](OC(=O)CCCC(=O)N(CCCN)CCCCNCCCN)CC[C@]4(C)[C@H]3CC[C@]12C)C(C)C [SA117, trihydrochloride]
Reply: 0.17

Query: So what's the measured PDI for this one? CC(C)CCC[C@@H](C)[C@H]1CC[C@H]2[C@@H]3CC=C4C[C@@H](OC(=O)CSSCC(=O)N(CCCN)CCCCNCCCN)CC[C@]4(C)[C@H]3CC[C@]12C [SA98, trihydrochloride]
Reply: 0.14

Query: So what's the measured PDI for this one? "CC(C)CCC[C@@H](C)[C@H]1CC[C@H]2[C@@H]3CC=C4C[C@@H](OC(=O)CCCC(=O)N(CCCCCCCC(C)(C)N)CCC(C)(C)N)CC[C@]4(C)[C@H]3CC[C@]12C.Cl.Cl"
Reply: 0.12

Query: So what's the measured PDI for this one? "CC[C@H](CC[C@@H](C)[C@H]1CC[C@H]2[C@@H]3CC=C4C[C@@H](OC(=O)CN(CCCN)CCCCNCCCN)CC[C@]4(C)[C@H]3CC[C@]12C)C(C)C"
Reply: 0.15

Query: So what's the measured PDI for this one? CC(C)CCC[C@@H](C)[C@H]1CC[C@H]2[C@@H]3CC=C4C[C@@H](OC(=O)CCC(=O)N(CCCCCCCC(C)N)CCC(C)N)CC[C@]4(C)[C@H]3CC[C@]12C (stereo partly drawn) [SA162, dihydrochloride]
Reply: 0.16

Query: So what's the measured PDI for this one? CC(C)CCC[C@@H](C)[C@H]1CC[C@H]2[C@@H]3CC=C4C[C@@H](OC(=O)N(CCCCNCCC(C)(C)N)CCC(C)(C)N)CC[C@]4(C)[C@H]3CC[C@]12C [SA78, trihydrochloride]
Reply: 0.17

Query: So what's the measured PDI for this one? CC(C)CCC[C@@H](C)[C@H]1CC[C@H]2[C@@H]3CC=C4C[C@@H](OC(=O)CCCCC(=O)N(CCCN)CCCCNCCCN)CC[C@]4(C)[C@H]3CC[C@]12C [SA89, trihydrochloride]
Reply: 0.15
